measurement-target: BTK enzyme (recombinant full-length BTK, hBTK) (Homo sapiens (Human), UniProt Q06187)
Sequence (Q06187 whole entry): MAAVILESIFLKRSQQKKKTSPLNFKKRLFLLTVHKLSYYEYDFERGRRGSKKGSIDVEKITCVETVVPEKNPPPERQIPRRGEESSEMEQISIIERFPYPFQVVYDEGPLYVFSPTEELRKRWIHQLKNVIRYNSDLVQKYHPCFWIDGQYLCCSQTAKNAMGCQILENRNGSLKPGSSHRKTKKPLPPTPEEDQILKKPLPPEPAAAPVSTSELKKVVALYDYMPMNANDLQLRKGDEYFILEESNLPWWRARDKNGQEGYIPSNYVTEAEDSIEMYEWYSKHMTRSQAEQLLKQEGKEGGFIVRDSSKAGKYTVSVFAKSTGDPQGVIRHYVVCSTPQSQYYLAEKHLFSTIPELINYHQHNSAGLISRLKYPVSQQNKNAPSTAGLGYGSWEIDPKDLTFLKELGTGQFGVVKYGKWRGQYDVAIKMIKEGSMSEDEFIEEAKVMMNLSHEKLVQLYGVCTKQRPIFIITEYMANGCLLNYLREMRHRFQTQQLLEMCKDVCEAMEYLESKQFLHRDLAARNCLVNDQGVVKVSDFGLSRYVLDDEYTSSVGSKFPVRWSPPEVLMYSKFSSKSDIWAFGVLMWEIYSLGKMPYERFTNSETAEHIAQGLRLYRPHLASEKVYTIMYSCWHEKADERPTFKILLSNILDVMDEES
procedure-text: Btk enzyme activity assay, LANCE TR-FRET
Assay type: biochemical
assay-conditions: 50 pM hBTK, 2 μM biotin-A5-peptide, 25 μM ATP; 60 minute compound & enzyme incubation; read-out: BTK binding IC50
pIC50: −log10 of the molar value.
Classify as follows. Reported pIC50 greater than or equal to 9: Condition met. Reported pIC50 below: Condition not met.

Examples with answers:
CC(C)C1(C(=O)O)CCC(C)(c2nc(-c3ccc(C(=O)Nc4cc(C(F)(F)F)ccn4)cc3)c3c(N)nccn23)C1 (stereo not drawn) [Example 146] :: Condition not met
Nc1nccn2c([C@H]3CCC[C@@H](C(=O)O)C3)nc(-c3ccc(C(=O)Nc4cc(C5CC5)ccn4)cc3)c12 :: Condition not met

// query Decide: is the reported value of pIC50 for `CC1(C)[C@H](c2nc(-c3ccc(C(=O)Nc4cc(C(F)(F)F)ccn4)cc3)c3c(N)nccn23)CC[C@]1(C)C(=O)O` equal to or greater than 9?
// result Condition met

// query API: above_or_equal(metric=pIC50, cutoff=9) for item `C[C@H]1CO[C@@H](c2nc(-c3ccc(C(=O)Nc4cc(C(F)(F)F)ccn4)cc3)c3c(N)nccn23)CN1C(=O)C12CC(C(=O)O)(C1)C2`
// result Condition met

====

measurement-target: BTK enzyme (recombinant full-length BTK, hBTK) (Homo sapiens (Human), UniProt Q06187)
procedure-text: Btk enzyme activity assay, LANCE TR-FRET
assay-conditions: 50 pM hBTK, 2 μM biotin-A5-peptide, 25 μM ATP; 60 minute compound & enzyme incubation; read-out: BTK binding IC50
result-type: IC50 (nM)
One number for each entry, in nM.

The examples below pair each entry with its known result.
CCOc1cc(C(=O)Nc2cc(C(F)(F)F)ccn2)ccc1-c1nc([C@H]2CCC[C@](C(=O)O)(C(C)C)C2)n2ccnc(N)c12 [Example 90] :: 1.8
Nc1nccn2c(-c3ccc(C(=O)O)o3)nc(-c3ccc(C(=O)Nc4cc(C(F)(F)F)ccn4)cc3)c12 [Example 28] :: 2.4
C[C@]1(C(=O)O)CC[C@H](N2CCO[C@@H](c3nc(-c4ccc(C(=O)Nc5cc(C(F)F)ccn5)cc4)c4c(N)ncc(Cl)n34)C2)CC1 (stereo in doubt) [Example 196] :: 7.5
CC(C)(C(=O)O)N1CC(=O)N2C[C@H](c3nc(-c4ccc(C(=O)Nc5cc(C(F)(F)F)ccn5)cc4)c4c(N)nccn34)CC[C@H]2C1 [Example 43] :: 0.41
Nc1nccn2c([C@H]3CC[C@H]4[C@H](C(=O)O)[C@H]43)nc(-c3ccc(C(=O)Nc4cc(C(F)(F)F)ccn4)cc3)c12 [Example 57] :: 3.2

// query # query: IC50 | item CCOc1cc(C(=O)Nc2cc(C(F)(F)F)ccn2)ccc1-c1nc(C23CCC(C(=O)O)(CC2)C3)n2ccnc(N)c12 [Example 103] | system: BTK enzyme (recombinant full-length BTK, hBTK) (Homo sapiens (Human), UniProt Q06187)
// result 0.52

====

Test system: HeLa cells
procedure-text: [3H] Adenosine uptake assay
Type: cell-based
assay-conditions: Homo sapiens, HeLa, accumulation of tritiated adenosine into HeLa cells; compound concentration range 10 μM to 0.032 nM; read-out: ADU inhibition IC50 (adenosine uptake inhibition potency)
Assignment: determine reported IC50 for the given molecules.
One number for each entry, in µM.

CCOc1cc(C(=O)Nc2cc(C(F)(F)F)ccn2)ccc1-c1nc([C@@H]2C[C@H]3CC[C@@H](C2)[C@H]3C(=O)O)n2ccnc(N)c12 [Example 105] :: 10
COc1cc(C(=O)Nc2cc(C(F)(F)F)ccn2)cc(F)c1-c1nc(C23CCC(C(=O)O)(CC2)CC3)n2ccnc(N)c12 [Example 108] :: 6.69
Nc1nccn2c([C@@H]3CCN[C@H](C(=O)O)C3)nc(-c3ccc(C(=O)Nc4cc(C(F)(F)F)ccn4)cc3)c12 [Example 32] :: 5.91
C[C@H]1CO[C@@H](c2nc(-c3ccc(C(=O)Nc4cc(C(F)(F)F)ccn4)cc3F)c3c(N)ncc(Cl)n23)CN1[C@H]1CC[C@](C)(C(=O)O)CC1 [Example 200] :: 1.69
CN1CC[C@H](c2nc(-c3ccc(C(=O)Nc4cc(C(F)(F)F)ccn4)cc3)c3c(N)nccn23)C[C@@H]1C(=O)O [Example 83] :: 1.14

Hey, can you go through the list below and give me IC50 for every item?
1. C[C@]1(C(=O)O)CCCN(c2nc(-c3ccc(C(=O)Nc4cc(C(F)(F)F)ccn4)cc3)c3c(N)nccn23)C1 [Example 42]
2. CCOc1cc(C(=O)Nc2cc(C(F)(F)F)ccn2)c(F)cc1-c1nc(C23CCC(C(=O)O)(CC2)CC3)n2ccnc(N)c12 [Example 149]
3. CCOc1cc(C(=O)Nc2cc(C(F)(F)F)ccn2)ccc1-c1nc(C2CC3(CC(C(=O)O)C3)C2)n2ccnc(N)c12 (stereo not shown) [Example 93]
4. C[C@@]1(C(=O)O)CC[C@@](C)(c2nc(-c3ccc(C(=O)Nc4cc(C(F)(F)F)ccn4)cc3Cl)c3c(N)nccn23)C1 [Example 132]

// result
1: 2.77; 2: 6.87; 3: 4.64; 4: 3.16

Provide each entry's IC50 from the list below.
1. CCOc1cc(C(=O)Nc2cc(C(F)(F)F)ccn2)ccc1-c1nc(C23CCC(C(=O)O)(CC2)CC3)n2c(F)cnc(N)c12 [Example 173]
2. CCOc1cc(C(=O)Nc2cc(C(F)(F)F)ccn2)ccc1-c1nc([C@]23CC[C@](C(=O)O)(CC2O)C(O)C3)n2ccnc(N)c12 (stereo partly shown) [Example 73]
3. Nc1nccn2c(C34CCC(C(=O)O)(CC3)CC4)nc(-c3ccc(C(=O)Nc4cc(C(F)(F)F)ccn4)cc3O)c12 [Example 161]
4. COc1cc(C(=O)Nc2cc(C(F)(F)F)ccn2)ccc1-c1nc([C@H]2CN(C(C)(C)C(=O)O)CCO2)n2ccnc(N)c12 [Example 184]
5. CC(C)[C@@]1(C(=O)O)CC[C@H](c2nc(-c3ccc(C(=O)Nc4cc(C(F)(F)F)ccn4)cc3)c3c(N)ncc(Cl)n23)C1 [Example 107]
6. Nc1nccn2c([C@H]3CC[C@@H](CC(=O)O)C3)nc(-c3ccc(C(=O)Nc4cc(C(F)(F)F)ccn4)cc3)c12 [Example 50]

// result
1. 10
2. 3.65
3. 0.531
4. 5.41
5. 1.39
6. 3.7

// query Which measured IC50 value corresponds to CCOc1cc(C(=O)Nc2cc(C(F)(F)F)ccn2)ccc1-c1nc([C@H]2C[C@H]3CC[C@@H](C2)[C@H]3C(=O)O)n2ccnc(N)c12 [Example 104] ?
// result 10

====

Exercise: for every item that follows, state its recorded pIC50.
Test system: HeLa cells
procedure-text: [3H] Adenosine uptake assay
Type: cell-based
assay-conditions: accumulation of tritiated adenosine into HeLa cells; compound concentration range 10 μM to 0.032 nM; read-out: ADU inhibition IC50 (adenosine uptake inhibition potency)
Give bare numbers, as −log10 of the molar value.

Example results:
CC(C)(C(=O)O)C1CCC(c2nc(-c3ccc(C(=O)Nc4cc(C(F)(F)F)ccn4)cc3)c3c(N)nccn23)C1 (stereo not drawn) [Example 97] :: 5.12
CC(C)C1(C(=O)O)CCC(C)(c2nc(-c3ccc(C(=O)Nc4cc(C(F)(F)F)ccn4)cc3)c3c(N)nccn23)C1 (stereo not drawn) [Example 145] :: 5.00
CC(C)(C(=O)O)C1CCC(c2nc(-c3ccc(C(=O)Nc4cc(C(F)(F)F)ccn4)cc3)c3c(N)nccn23)C1 (stereo not drawn) [Example 94] :: 5.00
COc1cc(C(=O)Nc2cc(C(F)(F)F)ccn2)ccc1-c1nc([C@H]2CN(C3CCC(C)(C(=O)O)CC3)CCO2)n2ccnc(N)c12 (stereo partly drawn) [Example 180] :: 5.40
CC(C)C1(C(=O)O)CCC(C)(c2nc(-c3ccc(C(=O)Nc4cc(C(F)(F)F)ccn4)cc3)c3c(N)nccn23)C1 (stereo not drawn) [Example 144] :: 5.52

// query What does the record list as pIC50 for CC(C)C1(C(=O)O)CCC(C)(c2nc(-c3ccc(C(=O)Nc4cc(C(F)(F)F)ccn4)cc3)c3c(N)nccn23)C1 (stereo not drawn) [Example 143] ?
// result 5.40

====

Tested on: HeLa cells
procedure-text: [3H] Adenosine uptake assay
Type: cell-based
assay-conditions: Homo sapiens, HeLa, accumulation of tritiated adenosine into HeLa cells; compound concentration range 10 μM to 0.032 nM; read-out: ADU inhibition IC50 (adenosine uptake inhibition potency)
Would you mind telling me the reported pIC50 of each entry?
Give bare numbers, as −log10 of the molar value.

CCOc1cc(C(=O)Nc2cc(C(F)(F)F)ccn2)ccc1-c1nc(C23CCC(C(=O)O)(CC2)C3)n2ccnc(N)c12 [Example 103] :: 5.73

Give measured pIC50 for every item shown.
1. CCOc1cc(C(=O)Nc2cc(C(F)(F)F)ccn2)ccc1-c1nc([C@H]2CC[C@](C(=O)O)(C(C)C)C2)n2c(Cl)cnc(N)c12 [Example 110]
2. CCOc1cc(C(=O)Nc2cc(C(F)(F)F)ccn2)ccc1-c1nc(C23CCC(C(=O)O)(CC2O)C(O)C3)n2ccnc(N)c12 (stereo not drawn) [Example 174]
3. Nc1nccn2c([C@H]3CC[C@H]4[C@H](C(=O)O)[C@H]43)nc(-c3ccc(C(=O)Nc4cc(C(F)(F)F)ccn4)cc3)c12 [Example 57]
4. Nc1nccn2c(C34CCCC(C(=O)O)(CC3)CC4)nc(-c3ccc(C(=O)Nc4cc(C(F)(F)F)ccn4)cc3)c12 [Example 68]

// result
1. 5.32
2. 5.00
3. 5.00
4. 6.56

// query If you can, please state the reported pIC50 value of CCOc1cc(C(=O)Nc2cc(C(F)(F)F)ccn2)c(F)cc1-c1nc([C@@]2(C)CC[C@](C)(C(=O)O)C2)n2ccnc(N)c12 [Example 128] .
// result 5.03
